Molecular target: UniProt:P04585
Assay: HIV-protease inhibitory activity assay (FRET peptide substrate)
Details: Test Example 1
Here, each record is paired with measured IC50 data.

COc1ccc(S(=O)(=O)N(CC(C)C)C[C@@H](O)[C@H](Cc2ccc(NCc3cc(-c4ccc(N(C)C)cc4)ccc3-c3sc4c(c3C(=O)O)CC(C)(C)CC4)cc2)NC(=O)O[C@H]2CO[C@@]3(C)OCC[C@@H]23)cc1: 2.42 nM

Here's the next entry for you.
Request: Reported IC50, compound COc1ccc(S(=O)(=O)N(CC(C)C)CC(O)C(Cc2ccc(NCc3cc(F)ccc3C(=O)Nc3sc4c(c3C(=O)O)CC(C)(C)CC4)cc2)NC(=O)OC2COC3(C)OCCC23)cc1 (centres unmarked) : ____
Result: 5.07 nM

---

Assay: Evaluation of total body clearance (CLtot), intravenous administration
Assay type: in vivo, Sprague-Dawley (SD)
Conditions: rat (SD), intravenous administration 0.5-10 mg/kg; CLtot = dose/AUC
Here, each record is paired with measured rat_CLt data.
Answer as a quantity: numeral, then unit.

Solved cases (4 shown):
CC(C)CN(CC(O)C(Cc1ccc(OCc2ccccc2-c2sc3c(c2C(=O)O)CC(C)(C)CC3)cc1)NC(=O)OC1COC2(C)OCCC12)S(=O)(=O)c1ccc2nc(N)sc2c1 (centres unmarked): 1.47 mL/min/kg
COc1ccc(S(=O)(=O)N(CC(C)C)CC(O)C(Cc2ccc(CN(C)c3ccc(-c4sc5c(c4C(=O)O)CC(C)(C)CC5)c(C)c3)cc2)NC(=O)OC2COC3(C)OCCC23)cc1 (centres unmarked): 0.485 mL/min/kg
COc1ccc(S(=O)(=O)N(CC(C)C)CC(O)C(Cc2ccc(N(C)Cc3ccccc3-n3nc4c(c3C(=O)O)CC3(CCCC3)CC4)cc2)NC(=O)OC2COC3(C)OCCC23)cc1 (centres unmarked): 1.75 mL/min/kg
COc1ccc(S(=O)(=O)N(CC(C)C)CC(O)C(Cc2ccc(NCc3ccc(C)cc3-c3sc4c(c3C(=O)O)CC(C)(C)CC4)cc2)NC(=O)OC2COC3(C)OCCC23)cc1 (centres unmarked): 0.715 mL/min/kg

Here's the next entry for you.
Request: Reported rat_CLt, molecule COc1ccc(S(=O)(=O)N(CC(C)C)CC(O)C(Cc2ccc(NCc3cc(N4CCCCC4)ccc3-c3sc4c(c3C(=O)O)CC(C)(C)CC4)cc2)NC(=O)OC2COC3(C)OCCC23)cc1 (centres unmarked) : ____
Result: 0.385 mL/min/kg

---

Here, each record is paired with measured IC50 data.
Target: HIV-1 PR (Human immunodeficiency virus type 1 group M subtype B, UniProt P04585)
Assay: HIV-protease inhibitory activity assay (FRET peptide substrate)
Settings: Test Example 1
The answer is to be given in nM; state only the numeric part.

Solved cases (2 shown):
COc1ccc(S(=O)(=O)N(CC(C)C)CC(O)C(Cc2ccc(NCc3ccccc3-c3cnc(-c4sc5c(c4C(=O)O)CC(C)(C)CC5)s3)cc2)NC(=O)OC2COC3(C)OCCC23)cc1 (stereo not drawn) [Compound I-766]: 3.28
COc1ccc(S(=O)(=O)N(CC(C)C)CC(O)C(Cc2ccc(N(C)Cc3nc(N4CCCC4)ccc3-c3sc4c(c3C(=O)O)CC(C)(C)CC4)cc2)NC(=O)OC2COC3(C)OCCC23)cc1 (stereo not drawn) [Compound I-755]: 2.69

Request: Field: IC50 (HIV-1 PR (Human immunodeficiency virus type 1 group M subtype B, UniProt P04585)). Entry: COc1ccc(S(=O)(=O)N(CC(C)C)CC(O)C(Cc2ccc(NCc3ccccc3-c3ccc4c(c3C(=O)O)CC(C)(C)CC4)cc2)NC(=O)OC2COC3(C)OCCC23)cc1 (stereo not drawn) [Compound I-392]
Result: 2.4

---

Target: UniProt:P04585
Assay: HIV-protease inhibitory activity assay (FRET peptide substrate)
Settings: Test Example 1
Here, each record is paired with measured IC50 data.
The answer is to be given in nM; state only the numeric part.

COc1ccc(S(=O)(=O)N(CC(C)C)CC(O)C(Cc2ccc(N(C)C3CCN(c4ccccc4-c4sc5c(c4C(=O)O)CC(C)(C)CC5)C3)cc2)NC(=O)OC2COC3(C)OCCC23)cc1 (stereo not shown): 2.74
COc1ccc(S(=O)(=O)N(CC(C)C)CC(O)C(Cc2ccc(NCc3cc4c(cc3-c3sc5c(c3C(=O)O)CC(C)(C)CC5)OCC(=O)N4C)cc2)NC(=O)OC2COC3(C)OCCC23)cc1 (stereo not shown): 2.55

Here's the next entry for you.
Request: Reported IC50, compound COc1ccc(S(=O)(=O)N(CC(C)C)CC(O)C(Cc2ccc(OCC3COCC3c3sc4c(c3C(=O)O)CC(C)(C)CC4)cc2)NC(=O)OC2COC3(C)OCCC23)cc1 (stereo not shown) [Compound I-395] : ____
Result: 1.86

---

Here, each record is paired with measured IC50 data.
Target: HIV-1 PR (Human immunodeficiency virus type 1 group M subtype B)
Assay: HIV-protease inhibitory activity assay (FRET peptide substrate)
Conditions: Test Example 1
Answer as a quantity: numeral, then unit.

Solved cases (2 shown):
CC(C)CN(CC(O)C(Cc1ccc(NCc2ccccc2-c2sc3c(c2C(=O)O)CC(C)(C)CC3)cc1)NC(=O)OC1COC2(C)OCCC12)S(=O)(=O)c1ccc(OCF)cc1 (stereo not drawn) [Compound I-507]: 1.85 nM
COc1ccc(S(=O)(=O)N(CC2CCC2)CC(O)C(Cc2ccc(NCc3ccccc3-c3sc4c(c3C(=O)O)CC(C)(C)CC4)cc2)NC(=O)OC2COC3(C)OCCC23)cc1 (stereo not drawn) [Compound I-474]: 2.14 nM

Here's the next entry for you.
Request: Reported IC50, compound COc1ccc(S(=O)(=O)N(CC2CCCC2)CC(O)C(Cc2ccc(OCc3cc(C(F)(F)F)ccc3-n3nc4c(c3C(=O)O)CC(C)(C)CC4)cc2)NC(=O)OC2COC3(C)OCCC23)cc1 (stereo not drawn) [Compound I-365] : ____
Result: 3.2 nM

---

Here, each record is paired with measured pIC50 data.
Target: UniProtKB P04585
Assay: HIV-protease inhibitory activity assay (FRET peptide substrate)
Conditions: Test Example 1
Quick note: pIC50 values are minus log10 of concentrations in mol/L.

Request: Field: pIC50 (UniProtKB P04585). Entry: CN(Cc1ccccc1C(=O)Nc1sc2c(c1C(=O)O)CC(C)(C)CC2)c1ccc(CC(NC(=O)OC2COC3(C)OCCC23)C(O)CN(CC2CCCC2)S(=O)(=O)c2ccc3c(c2)OCO3)cc1 (stereo not shown)
Result: 8.10

Request: Query COc1ccc(S(=O)(=O)N(CC(C)C)CC(O)C(Cc2ccc(NCCc3ccccc3-c3sc4c(c3C(=O)O)CC(C)(C)CC4)cc2)NC(=O)OC2COC3(C)OCCC23)cc1 (stereo not shown) next
Result: 8.40

Request: Query COc1ccc(S(=O)(=O)N(CC2CCCC2)CC(O)C(Cc2ccc(OCc3ccccc3-n3nc4c(c3C(=O)O)CC(C(C)(C)C)CC4)cc2)NC(=O)OC2COC3(C)OCCC23)cc1 (stereo not shown) next
Result: 9.09

Request: Query COc1ccc(S(=O)(=O)N(CC(C)C)CC(O)C(Cc2ccc(N(C)CCn3nc4c(c3C(=O)O)CC(C)(C)CC4)cc2)NC(=O)OC2COC3(C)OCCC23)cc1 (stereo not shown) next
Result: 8.59

Request: Query COc1ccc(S(=O)(=O)N(CC(C)C)CC(O)C(Cc2ccc(NCc3ccc(Cl)cc3-c3sc4c(c3C(=O)O)CC(C)(C)CC4)cc2)NC(=O)OC2COC3(C)OCCC23)cc1 (stereo not shown) next
Result: 8.67

Request: Query COc1ccc(S(=O)(=O)N(CC(C)C)CC(O)C(Cc2ccc(NCc3cc(-c4sc5c(c4C(=O)O)CC(C)(C)CC5)cc4ccccc34)cc2)NC(=O)OC2COC3(C)OCCC23)cc1 (stereo not shown) next
Result: 8.37

Request: Query COc1ccc(S(=O)(=O)N(CC(C)C)CC(O)C(Cc2ccc(NCc3ccc(C(=O)Nc4sc5c(c4C(=O)O)CC(C)(C)CC5)s3)cc2)NC(=O)OC2COC3(C)OCCC23)cc1 (stereo not shown) next
Result: 8.58

---

Target: HIV-1 PR (Human immunodeficiency virus type 1 group M subtype B)
Test: HIV-protease inhibitory activity assay (FRET peptide substrate)
Settings: Test Example 1
IC50 strictly less than 3 nM = y. Otherwise n.

CC(C)CN(CC(O)C(Cc1ccc(NCc2ccccc2C(=O)Nc2sc3c(c2C(=O)O)CC(C)(C)CC3)cc1)NC(=O)OC1COC2(C)OCCC12)S(=O)(=O)c1ccc2ncsc2c1 (centres unmarked): n

Request: A record lists COc1ccc(S(=O)(=O)N(CC(C)C)CC(O)C(Cc2ccc(N(C)Cc3ccc(C(F)(F)F)cc3-c3sc4c(c3C(=O)O)CC(C)(C)CC4)cc2)NC(=O)OC2COC3(C)OCCC23)cc1 (centres unmarked) . Is its IC50 below 3 nM?
Result: n

Request: Query COc1ccc(S(=O)(=O)N(CC(C)C)CC(O)C(Cc2ccc(N3C(=O)c4ccc(-c5sc6c(c5C(=O)O)CC(C)(C)CC6)cc4C3=O)cc2)NC(=O)OC2COC3(C)OCCC23)cc1 (centres unmarked) next
Result: y

Request: Query COc1ccc(S(=O)(=O)N(CC(C)C)CC(O)C(Cc2ccc(OC3CCC(C(C)(C)C(=O)O)CC3)cc2)NC(=O)OC2COC3(C)OCCC23)cc1 (centres unmarked) next
Result: y
